subject.of.test: human recombinant UGT2B15 (Homo sapiens, UniProt P54855)
Sequence (P54855 24-530): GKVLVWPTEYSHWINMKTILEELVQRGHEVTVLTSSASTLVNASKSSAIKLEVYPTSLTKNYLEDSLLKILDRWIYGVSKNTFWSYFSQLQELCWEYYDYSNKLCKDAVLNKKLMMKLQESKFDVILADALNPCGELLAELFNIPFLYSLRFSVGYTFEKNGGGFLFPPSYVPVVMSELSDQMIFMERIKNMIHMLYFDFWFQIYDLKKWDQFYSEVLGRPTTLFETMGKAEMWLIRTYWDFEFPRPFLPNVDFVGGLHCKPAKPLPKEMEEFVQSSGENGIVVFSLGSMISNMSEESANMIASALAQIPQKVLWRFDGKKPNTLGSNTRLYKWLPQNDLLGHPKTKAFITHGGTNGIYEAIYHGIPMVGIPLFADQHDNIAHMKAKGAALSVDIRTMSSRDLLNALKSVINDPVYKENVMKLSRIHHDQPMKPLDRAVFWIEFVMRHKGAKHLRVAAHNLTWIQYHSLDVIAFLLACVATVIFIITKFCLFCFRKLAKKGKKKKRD
experimental.protocol: Inhibition of UGT2B15 in Supersomes
reported.endpoint: IC50 (µM)
# value in µM; strip the unit string

## Task Recorded IC50 for CCC(=O)C(C[C@H](C)N(C)C)(c1ccccc1)c1ccccc1 , please?
## Result 139

###

Test system: CYP2C9
experimental.protocol: in vitro
Format: in vitro ADME
test.conditions: human, mRNA levels EC50, donor 3, 72 h
reported.endpoint: EC50 at 72 h (µM)
# value in µM; strip the unit string

## Task Item CCC(=O)C(C[C@H](C)N(C)C)(c1ccccc1)c1ccccc1 [esmethadone] with CYP2C9 - EC50 at 72 h?
## Result 18.1

###

Test system: CYP3A4
experimental.protocol: Study 2
test.conditions: human, in vivo, 2 mg
reported.endpoint: Vd/F

## Task Recorded Vd/F for Cc1ncc2n1-c1ccc(Cl)cc1C(c1ccccc1F)=NC2 [midazolam, reference compound] , please?
## Result 571 L

###

Tested on: CYP3A4
experimental.protocol: Study 2
test.conditions: human, in vivo, 2 mg
reported.endpoint: AUC(0-t) (ng·h/mL)
# value in ng·h/mL; strip the unit string

## Task Item Cc1ncc2n1-c1ccc(Cl)cc1C(c1ccccc1F)=NC2 [midazolam, reference compound] with CYP3A4 - AUC(0-t)?
## Result 25.5

###

System: CYP1A2
experimental.protocol: in vitro
Assay type: in vitro ADME
test.conditions: human, mRNA levels EC50, donor 1, 72 h
reported.endpoint: EC50 at 72 h (µM)
# value in µM; strip the unit string

## Task Recorded EC50 at 72 h for CCC(=O)C(C[C@H](C)N(C)C)(c1ccccc1)c1ccccc1 , please?
## Result 25.7

###

subject.of.test: CYP2B6 (Homo sapiens)
Sequence (P20813 1-491): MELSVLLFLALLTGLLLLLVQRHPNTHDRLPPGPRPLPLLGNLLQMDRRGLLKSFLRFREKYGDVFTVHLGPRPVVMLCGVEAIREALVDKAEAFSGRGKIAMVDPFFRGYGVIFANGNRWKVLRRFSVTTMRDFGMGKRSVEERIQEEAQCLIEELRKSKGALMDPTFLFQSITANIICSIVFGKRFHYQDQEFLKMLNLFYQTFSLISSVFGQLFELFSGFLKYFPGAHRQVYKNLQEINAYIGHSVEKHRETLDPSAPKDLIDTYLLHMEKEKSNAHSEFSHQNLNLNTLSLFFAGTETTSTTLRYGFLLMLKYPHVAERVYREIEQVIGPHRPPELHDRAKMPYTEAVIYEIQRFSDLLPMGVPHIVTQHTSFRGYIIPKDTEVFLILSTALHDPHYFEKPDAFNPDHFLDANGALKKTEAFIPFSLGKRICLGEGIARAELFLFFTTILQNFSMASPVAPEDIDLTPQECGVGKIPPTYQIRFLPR
reported.endpoint: IC50

## Task Item CCC(=O)C(C[C@H](C)N(C)C)(c1ccccc1)c1ccccc1 with CYP2B6 (Homo sapiens) - IC50?
## Result > 200 µM

###

System: CYP3A4
experimental.protocol: Study 3
test.conditions: human, in vivo, po, 25 mg
reported.endpoint: Cmax (ng/mL)
# value in ng/mL; strip the unit string

## Task Recorded Cmax for CCC(=O)C(C[C@H](C)N(C)C)(c1ccccc1)c1ccccc1 , please?
## Result 131

###

subject.of.test: UGT1A1 (Homo sapiens, UniProt P22309)
Sequence (P22309 26-533): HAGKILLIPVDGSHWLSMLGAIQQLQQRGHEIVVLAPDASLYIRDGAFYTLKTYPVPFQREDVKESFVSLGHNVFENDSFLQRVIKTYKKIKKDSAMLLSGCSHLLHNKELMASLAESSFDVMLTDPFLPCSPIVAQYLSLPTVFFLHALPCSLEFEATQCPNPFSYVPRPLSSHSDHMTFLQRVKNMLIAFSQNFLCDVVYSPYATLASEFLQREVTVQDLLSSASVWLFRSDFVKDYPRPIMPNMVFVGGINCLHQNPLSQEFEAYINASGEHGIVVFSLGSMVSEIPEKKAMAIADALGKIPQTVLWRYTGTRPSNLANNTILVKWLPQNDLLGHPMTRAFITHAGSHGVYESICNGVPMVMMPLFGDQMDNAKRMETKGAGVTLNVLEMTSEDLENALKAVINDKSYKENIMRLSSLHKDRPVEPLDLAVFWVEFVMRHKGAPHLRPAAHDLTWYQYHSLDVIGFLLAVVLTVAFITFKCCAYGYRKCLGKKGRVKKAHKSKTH
reported.endpoint: IC50

## Task Item CCC(=O)C(C[C@H](C)N(C)C)(c1ccccc1)c1ccccc1 with UGT1A1 (Homo sapiens, UniProt P22309) - IC50?
## Result > 200 µM
